- SYSTEM_UNDER_TEST: T1, human CD40L monomer triple mutant (T211E, S222Y, H224K, [108-261]) (human, UniProt P29965 108-261)
- T1 construct: also called monomeric human CD40L
- T1 chain: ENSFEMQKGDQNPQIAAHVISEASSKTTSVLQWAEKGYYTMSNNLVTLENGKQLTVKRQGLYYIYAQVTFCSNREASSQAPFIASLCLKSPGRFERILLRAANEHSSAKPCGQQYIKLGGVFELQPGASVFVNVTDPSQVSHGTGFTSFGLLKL
- METHOD_SUMMARY: SPR; dAb-CT-long captured on anti-human IgG Fc surface, CD40L monomer as analyte
MEASURED_METRIC: binding result

[[record]]
binder = "2h572-619-Ctlong Fc (Fc fusion, not shown: linker and CT Long Fc (CT-L2)) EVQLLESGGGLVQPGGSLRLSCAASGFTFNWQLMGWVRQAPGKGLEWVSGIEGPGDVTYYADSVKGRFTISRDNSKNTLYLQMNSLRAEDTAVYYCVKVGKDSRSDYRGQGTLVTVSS"
measured = "no binding"

[[record]]
binder = "2h572-614-CT Long Fc (Fc fusion, not shown: linker and CT Long Fc (CT-L2)) EVQLLESGGGLVQPGGSLRLSCAASGFTFNWQLMGWVRQAPGKGLEWVSGIEGPGDVTYYADSVKGRFTISRDNSKNTLYLQMNSLRAEDTAVYYCVKVGKDAKSDYRGQGTLVTVSS"
measured = "no binding"

[[record]]
binder = "2h572-608-CT Long Fc (Fc fusion, not shown: linker and CT Long Fc (CT-L2)) EVQLLESGGGLVQPGGSLRLSCAASGFTFNWELMGWARQAPGKGLEWVSGIEGPGDVTYYADSVKGRFTISRDNSKNTLYLQMNSLRAEDTAVYYCVKVGKESNSDYRGQGTLVTVSS"
measured = "no binding"


These measurements were taken from patent US20160075790A1.
